List of EC50 Human APJ Receptor values.
# SUBJECT_OF_TEST: T1, human APJ receptor (human, UniProt P35414 1-380)
# T1 sequence (looked up): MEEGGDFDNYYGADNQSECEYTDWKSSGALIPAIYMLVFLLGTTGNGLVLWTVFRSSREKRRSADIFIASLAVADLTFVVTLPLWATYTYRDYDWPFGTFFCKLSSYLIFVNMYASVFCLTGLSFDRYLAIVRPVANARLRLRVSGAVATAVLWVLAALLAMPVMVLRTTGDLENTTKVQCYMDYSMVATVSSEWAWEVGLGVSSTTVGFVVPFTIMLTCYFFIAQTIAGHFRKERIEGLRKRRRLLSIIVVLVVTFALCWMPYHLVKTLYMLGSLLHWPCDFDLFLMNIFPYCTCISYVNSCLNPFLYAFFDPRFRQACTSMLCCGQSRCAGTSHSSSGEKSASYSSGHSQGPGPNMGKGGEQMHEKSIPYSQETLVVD
# ASSAY_REMARKS: cell-based or functional assay
Starred links: 1 amine or outer side, 2 acyl side, 3 side chain; linkers in the order of their positions; H or OH if unused. Non-standard residues stand in square brackets, D forms with d. *: point of attachment. AC4Abu = α-carboxy-4-aminobutyric acid, O=C(C(CCN[*:1])C(=O)[*:3])[*:2]; Oic = O=C(O)[C@@H]1C[C@@H]2CCCC[C@@H]2N1; Phe(4-Cl) = N[C@@H](Cc1ccc(Cl)cc1)C(=O)O; NMeR = CN[C@@H](CCCNC(=N)N)C(=O)O; Palmitoyl = CCCCCCCCCCCCCCCC(=O)*; Tridecanoyl = CCCCCCCCCCCCC(=O)*; hArg = N=C(N)NCCCC[C@H](N)C(=O)O; Cha = N[C@@H](CC1CCCCC1)C(=O)O; αMeL = CC(C)C[C@](C)(N)C(=O)O; Aic = NC1(C(=O)O)Cc2ccccc2C1; αMeP = C[C@@]1(C(=O)O)CCCN1; Pip = O=C(O)[C@@H]1CCCCN1; Nle = CCCC[C@H](N)C(=O)O; AEEA = NCCOCCOCC(=O)O; BLeu = β-leucine

Examples from the recorded data:
Palmitoyl-[AC4Abu][AEEA][AEEA][dQ]RP[NMeR][Cha]SHKG[Pip][Nle][Aic]-OH (SMILES CCCCCCCCCCCCCCCC(=O)NCCC(C(=O)O)C(=O)NCCOCCOCC(=O)NCCOCCOCC(=O)N[C@H](CCC(N)=O)C(=O)N[C@@H](CCCNC(=N)N)C(=O)N1CCC[C@H]1C(=O)N(C)[C@@H](CCCNC(=N)N)C(=O)N[C@@H](CC1CCCCC1)C(=O)N[C@@H](CO)C(=O)N[C@@H](Cc1c[nH]cn1)C(=O)N[C@@H](CCCCN)C(=O)NCC(=O)N1CCCC[C@H]1C(=O)N[C@@H](CCCC)C(=O)NC1(C(=O)O)Cc2ccccc2C1) [SEQ ID NO: 597] ... 0.885 nM
Tridecanoyl-[AC4Abu][AEEA][AEEA][BLeu]R[αMeP][hArg][αMeL]SHKG[Oic][Nle][αMeP][Phe(4-Cl)]-OH [SEQ ID NO: 552] ... 1.96 nM

Incoming: What value of EC50 Human APJ Receptor has been reported for the following binder? XXXQRPRLSHKGPMPF ({ODDA}[AC4Abu][Aeea][Aeea]QRPRLSHKGPMPF{COOH}) [SEQ ID NO: 290]
Outgoing: 40.1 nM
